# testedOn: HA of ca A/Panama/2007/99 (H3N2) virus (influenza A virus)
# assayName: cell-based or functional assay

>  <binder>
Antibody 11 (antibody, V domains shown) VH: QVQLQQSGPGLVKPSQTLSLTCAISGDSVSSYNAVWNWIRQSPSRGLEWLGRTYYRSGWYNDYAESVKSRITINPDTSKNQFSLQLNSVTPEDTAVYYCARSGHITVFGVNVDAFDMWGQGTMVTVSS VL: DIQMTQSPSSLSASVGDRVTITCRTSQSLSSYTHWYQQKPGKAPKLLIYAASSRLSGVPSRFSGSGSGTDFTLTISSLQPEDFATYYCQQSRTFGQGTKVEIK

>  <scaleUnit>
µg/mL

>  <Neutralization IC50, H3-Pa99>
2.18

$$$$
